Data credit: PubChem BioAssay AID248

Property: T/C; scope: individual molecules
Test system: L1210 leukemia ip in BDF1 mice, survival T/C
Test: NCI In Vivo Anticancer Drug Screen. Data for tumor model L1210 Leukemia (intraperitoneal) in B6D2F1 (BDF1) mice
Conditions: endpoint: mean survival time; dose: 100.0 mg/kg/injection; schedule: Q04DX003 (ip); vehicle: saline with Tween-80; higher = longer survival
Toxic doses and inconclusive results are not listed.
RECORDED_METRIC: T/C

molecule=CCc1ccccc1NC(=O)c1ccccc1Cl result="102 % of control"
molecule=CCCC(=O)Nc1ccc(Cl)c(Cl)c1 result="98 % of control"
molecule=CSC(S(C)(=O)=O)S(C)(=O)=O result="90 % of control"
molecule="N=C(CNC(=O)OCc1ccccc1)N1CCCC1C(=O)O (stereo unspecified)" result="100 % of control"
molecule="C1N2CN3CN1CN(C2)C3 (tested in a mixture with another compound)" result="107 % of control"
molecule="CCCCCCC(C)O[Si](C)c1ccc(-c2ccccc2)cc1 (stereo unspecified)" result="93 % of control"

###

System: L1210 leukemia ip in BDF1 mice, survival T/C
Assay: NCI In Vivo Anticancer Drug Screen. Data for tumor model L1210 Leukemia (intraperitoneal) in B6D2F1 (BDF1) mice
Settings: endpoint: mean survival time; dose: 200.0 mg/kg/injection; schedule: Q01DX001 (ip); vehicle: carboxymethylcellulose (CMC); higher = longer survival
Inconclusive results and toxic doses are left out.
RECORDED_METRIC: T/C

compound=CCCNC(=O)NCCN(CC)c1ccccc1 result="96 % of control"
compound=N#CCCCc1ccc(C(=O)O)cc1 result="100 % of control"
compound=CN1CCN(Cc2c(O)ccc3c4c(c(=O)oc23)CCCC4)CC1 result="93 % of control"
compound="CC12CCC3(CC1CCC1OC12)OCCO3 (stereo not given)" result="100 % of control"
compound=CN1C(=O)N(C)C2(CCCC2)C1=O result="104 % of control"
compound=O=C(O)c1ccc(/C=N/Nc2nnc(N/N=C/c3ccc(C(=O)O)cc3)c3ccccc23)cc1 result="107 % of control"
compound="COc1cc(C(C)S(=O)(=O)c2ccc(C)cc2)ccc1O (stereo not given)" result="93 % of control"
compound=CN(N=O)c1ccc(C=C2c3ccccc3-c3ccccc32)cc1 result="96 % of control"
compound="CCNc1nc2c(=O)[nH]c(N)nc2n1C1OC(CO)C(O)C1O (stereo not given)" result="96 % of control"
compound=CC(CO)(CO)N=Cc1cc(Cl)cc(Cl)c1O result="107 % of control"
compound=O=C(OCCBr)Oc1cccc2ccccc12 result="93 % of control"
compound="CCSC(SCC)C1OC(C)(C)OC1C1COC(C)(C)O1 (stereo not given)" result="103 % of control"
compound=O=[N+]([O-])c1c(Cl)cc(Cl)c([N+](=O)[O-])c1-c1ccccc1 result="96 % of control"
compound="O=C(O)c1ccccc1C(=O)OC1C=CC2CCC1C2 (stereo not given)" result="90 % of control"
compound=Nc1cc2c(cc1Br)-c1ccc([N+](=O)[O-])cc1/C2=N\O result="103 % of control"
compound="O=C1OC(=O)C2C1C1C=CC2C1(c1ccccc1)c1ccccc1 (stereo not given)" result="96 % of control"
compound=CC(=O)N1Cc2ncnc(N)c2C1 result="95 % of control"
compound=CCOC(=O)Cn1c(=O)cc(C=O)c2ccccc21 result="91 % of control"
compound=O=C1c2ccccc2-c2ccc(N=C(NO)C(F)(F)F)cc21 result="98 % of control"
compound=O=c1[nH]c(-c2ccccc2)nc(CN2CCCCC2)c1O result="98 % of control"
compound="CS(=O)(=O)n1c(C(O)c2ccccc2)nc2ccccc21 (stereo not given)" result="94 % of control"
compound=CC(C)(CO)N=Cc1ccc(O)cc1O result="93 % of control"
compound=O=C(Nc1ccc(F)cc1)Nc1ccc(Nc2ccccc2)cc1 result="91 % of control"
compound=C/C=C(C)/C=N/Nc1nnc(N/N=C/C(C)=C/C)c2ccccc12 result="103 % of control"
compound="c1ccc2c(c1)CC([CH2][Hg][CH2]C1Cc3ccccc3O1)O2 (stereo not given)" result="95 % of control"
